Hey, just so you know, these numbers are from patent US20230117920A1.

Starred links: 1 amine or outer side, 2 acyl side, 3 side chain; linkers in the order of their positions; H or OH if unused. Positions of bridges follow the written chain, without caps; N, C: chain ends. Non-standard residues stand in square brackets, D forms with d. Residues, ends and D or L forms follow the SMILES beside them. ACHC(1S,2S) = O=C([C@H]1CCCC[C@@H]1N[*:1])[*:2]; X1 = O=C([C@@H]1CCC[C@H]1N[*:1])[*:2]
Quick record: Kd, interferon γ receptor 1 (IFNGR1) (Homo sapiens).
Give the number; µM is assumed, so skip it.

Param item = CC(C)C[C@@H]1NC(=O)[C@H](CO)NC(=O)[C@H](Cc2ccccc2)NC(=O)[C@@H](Cc2ccc(O)cc2)NC(=O)CSC[C@H](C(=O)NCC(N)=O)NC(=O)CNC(=O)[C@H](CCCNC(=N)N)NC(=O)[C@H](CO)NC(=O)[C@H](CCCNC(=N)N)NC(=O)[C@H](CC(N)=O)NC(=O)[C@H](Cc2ccccc2)NC(=O)[C@H](CO)NC(=O)[C@@H]2CCC[C@H]2NC(=O)[C@H](CCCNC(=N)N)NC1=O [I1-4] ({CH2CO}-[dY]FSLR[X1]SFNRSRG[dC]G-NH2; thioether N-14) ; retrieve measured Kd.
0.00576

Param item = CC(C)C[C@@H]1NC(=O)[C@H](C)NC(=O)[C@H](Cc2ccccc2)NC(=O)[C@@H](Cc2ccc(O)cc2)NC(=O)CSC[C@H](C(=O)NCC(N)=O)NC(=O)[C@H](CCCNC(=N)N)NC(=O)[C@H](CCCNC(=N)N)NC(=O)[C@H](CC(N)=O)NC(=O)[C@H]2CCCC[C@@H]2NC(=O)[C@H](CCCNC(=N)N)NC(=O)[C@@H]2CCC[C@H]2NC(=O)[C@H](CC(N)=O)NC1=O [I1-5] ({CH2CO}-[dY]FALN[X1]R[ACHC(1S,2S)]NRR[dC]G-NH2; thioether N-12) ; retrieve measured Kd.
0.336

* * *

# systemTested: interferon γ receptor 1 (IFNGR1) (Homo sapiens, UniProt P15260)
# protocolNotes: biochemical
# conditionParameters: read-out: ka
Starred links: 1 amine or outer side, 2 acyl side, 3 side chain; linkers in the order of their positions; H or OH if unused. Positions of bridges follow the written chain, without caps; N, C: chain ends. Non-standard residues stand in square brackets, D forms with d. Residues, ends and D or L forms follow the SMILES beside them. X1 = O=C([C@@H]1CCC[C@H]1N[*:1])[*:2]
recordedEndpoint: kon

Param item = CC(C)C[C@@H]1NC(=O)[C@H](CO)NC(=O)[C@H](Cc2ccccc2)NC(=O)[C@@H](Cc2ccc(O)cc2)NC(=O)CSC[C@H](C(=O)NCC(N)=O)NC(=O)CNC(=O)[C@H](CCCNC(=N)N)NC(=O)[C@H](CO)NC(=O)[C@H](CCCNC(=N)N)NC(=O)[C@H](CC(N)=O)NC(=O)[C@H](Cc2ccccc2)NC(=O)[C@H](CO)NC(=O)[C@@H]2CCC[C@H]2NC(=O)[C@H](CCCNC(=N)N)NC1=O [I1-4] ({CH2CO}-[dY]FSLR[X1]SFNRSRG[dC]G-NH2; thioether N-14) ; retrieve measured kon.
3.39e+06 M⁻¹ s⁻¹
